What phosphorylation enrichment was measured for each of the following?
Molecular target: Fyn (UniProt P06241)
Sequence (P06241 whole entry, looked up): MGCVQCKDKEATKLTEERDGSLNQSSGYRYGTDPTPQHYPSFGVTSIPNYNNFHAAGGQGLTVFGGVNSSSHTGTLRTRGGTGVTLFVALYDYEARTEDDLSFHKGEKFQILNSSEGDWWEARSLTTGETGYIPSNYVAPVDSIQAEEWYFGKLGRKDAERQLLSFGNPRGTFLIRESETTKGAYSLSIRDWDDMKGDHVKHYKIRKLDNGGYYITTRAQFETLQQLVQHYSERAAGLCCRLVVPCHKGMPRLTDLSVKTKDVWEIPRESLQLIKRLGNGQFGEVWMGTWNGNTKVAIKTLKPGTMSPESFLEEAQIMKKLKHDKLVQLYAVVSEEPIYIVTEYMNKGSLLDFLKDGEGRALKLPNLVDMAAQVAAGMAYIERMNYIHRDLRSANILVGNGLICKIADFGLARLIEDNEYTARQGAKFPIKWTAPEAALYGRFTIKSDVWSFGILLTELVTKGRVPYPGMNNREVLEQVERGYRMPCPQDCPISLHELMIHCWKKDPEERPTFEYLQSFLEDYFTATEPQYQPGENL
Experiment: phosphorylation enrichment, bacterial display (enrichment ratio); higher = better substrate or ligand; peptides without Tyr show the background
Numbers only.

// each sequence listed below needs its phosphorylation enrichment
1. QLPRGYISIPV [BAG3_Y205]
2. EKKKYYDAKIE [CASP5_Y104_T106A]

// result
0.839
0.588

Dear colleague, could you please provide phosphorylation enrichment for the sequences listed below?
1. CKRQFYLFKGK [RSPO4_Y112_YF]
2. CGPLLYGLVHQ [PRKCG_Y122_S119P]

// result
0.431
3.72

###

Target: SHP2-C SH2;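 note: peptide library displayed on the E. coli surface as eCPX fusions, selected cells deep-sequenced, score is each peptide's frequency after selection divided by its frequency in the input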
Test: SH2 binding enrichment of the phosphorylated peptide, bacterial display (enrichment ratio); higher = better substrate or ligand; peptides without Tyr show the background
# cutoff 0.7 applies to SH2 binding enrichment; >= gives YES, < gives NO

{"macromolecule sequence": "TDKLFYIFTSG [SLC27A4_Y243_YF]", "tested on": "SHP2-C SH2", "label": "YES"}
{"macromolecule sequence": "PLYSKYWPNHI [GREB1L_Y1560_R1558S]", "tested on": "SHP2-C SH2", "label": "YES"}
{"macromolecule sequence": "TRHDEYLEVTK [MAP1A_Y2217]", "tested on": "SHP2-C SH2", "label": "NO"}
{"macromolecule sequence": "RSYSPCDYQPC [TNS1_Y796_Y796C]", "tested on": "SHP2-C SH2", "label": "NO"}

// query Textbook exercise: given the entry DPFHVYIKNHV [KCNE3_Y95_R99H_YF] , state whether its SH2 binding enrichment is greater than or equal to 0.7.
// result YES
